Assay explanation: Toxicity liver stage against HepG2, at 10uM
Assay type: cell-based
Design: test concentration 10 uM, cell line HepG2-A16-CD81EGFP
Condition info: human, HepG2-A16-CD81EGFP cells; read-out: INHIBITION
cytotoxicity at 10 µM values for the molecules below.

Molecule | cytotoxicity at 10 µM
CC(C)n1ncc2cc(NC(=O)N3CCC(C(N)=O)C3)cnc21 (centres undefined) | -1.85%
COCCn1ccnc1C1CCCN(C(=O)c2cc(F)cc(F)c2)C1 (centres undefined) | 8.86%
OCC1CCCCN1c1ccc(-c2nc(-c3ccccc3F)no2)cn1 (centres undefined) | 51.2%
Cc1cncc(C(=O)N2C[C@@H](C(=O)O)[C@H](C(C)C)C2)c1 | -4.31%
Cc1cccc(C)c1OCCCN1CCN(CC2CCCO2)CC1 (centres undefined) | 9.09%
COCCN1CCC2(COCc3c(C)nc(N(C)C)nc32)C1 (centres undefined) | -132%
Cn1ccc(C(=O)NC2CCC23CCN(C(=O)c2ccccn2)CC3)c1 (centres undefined) | -71.7%
CCc1cnc(NC(=O)NC2CCN(C3CCCC3)CC2)s1 | -7.27%
Cn1c(-c2ccccc2)nn(CCNS(=O)(=O)c2ccccc2Cl)c1=O | -2.85%
O=C(Nc1ccc(-c2ccccc2)cn1)C1CCN(C(=O)C2CC2)CC1 | -14.8%
Cc1nccc([C@@H]2C[C@@H]3CCN(S(=O)(=O)N(C)C)C[C@H]3O2)n1 | -3.38%
CC(C)(O)CN1CCN(C(=O)c2sccc2C#N)CC1 | -7.3%
Cc1ccc(CN2C[C@H](OCC3CCN(C)CC3)[C@H]3COC[C@H]32)o1 | 6.19%
CCS(=O)(=O)N1CC[C@H]2C(=O)N(Cc3cccnc3)CCO[C@H]2C1 | -80.4%

---

Entries and their cytotoxicity at 10 µM values follow.
Assay explanation: Toxicity liver stage against HepG2, at 10uM
Format: cell-based
Set-up: test concentration 10 uM, cell line HepG2-A16-CD81EGFP
Condition info: human, HepG2-A16-CD81EGFP cells; read-out: INHIBITION
Value kind: cytotoxicity at 10 µM (%)

Molecule | Value kind | Value
Cc1c(CN2CCOCC2)c(O)n(CCO)c(=O)c1C#N | cytotoxicity at 10 µM | -2.78
Cc1nn(C)c(C)c1C1CCCN1c1ncnc2sccc12 (centres undefined) | cytotoxicity at 10 µM | 44.1
COc1ccnc(CN(C)C(=O)CSc2nnc(N)s2)c1 | cytotoxicity at 10 µM | 3.94
c1csc(CN2C[C@H](OCC3CCOCC3)[C@H]3COC[C@H]32)n1 | cytotoxicity at 10 µM | -3.76
Cc1ccc(N2CC[C@@H]3CN(Cc4c[nH]cn4)C[C@@H]3C2)nn1 | cytotoxicity at 10 µM | 7.43
CCOCCCNC(=O)c1cn(C(C)(C)C)c2ncccc12 | cytotoxicity at 10 µM | 2.05
CCn1ccc(C(=O)N2CCCC2(C)c2nc(C)cc(N(C)C)n2)n1 (centres undefined) | cytotoxicity at 10 µM | -7.56
CC1CCN(C(=O)Cn2nc(Br)nc2Br)CC1 | cytotoxicity at 10 µM | -1.8
CC(C(=O)NCc1ccnc(N(C)C)c1)n1cccn1 (centres undefined) | cytotoxicity at 10 µM | -13.8

---

Assay explanation: Toxicity liver stage against HepG2, at 10uM
Assay type: cell-based
Design: test concentration 10 uM, cell line HepG2-A16-CD81EGFP
Condition info: human, HepG2-A16-CD81EGFP cells; read-out: INHIBITION
The reader will find reported cytotoxicity at 10 µM values listed item by item below.

Compound | cytotoxicity at 10 µM / %
Cc1ncc2c(n1)CN(Cc1cccc3c1OCCO3)CC2 | -1.31
O=C(NCCc1c[nH]c2ccccc12)C1(n2cnnn2)CCCCC1 | -0.321
Cc1nnc(C(NS(=O)(=O)c2cc(F)c(C)cc2F)C(C)C)[nH]1 (stereo not given) | -5.19
O=S(=O)(CCCN1CCc2c(ncn2C2CC2)C1)c1ccccc1 | -3.33
CCN(CCc1nc2cc(C)ccc2[nH]1)C(=O)[C@@H](N)CCSC | -9.28
O=C(c1cc2c(s1)CCC2)N1CCCC1Cn1cccn1 (stereo not given) | -3.12
Cc1nc(C(NC(=O)c2cc(C(C)C)[nH]n2)c2ccccc2)n[nH]1 (stereo not given) | 11.6
CNC(=O)N1CCC(=Cc2ccccc2)CC1 | -1.52
O=C(NCc1cc2n(n1)CCCN(Cc1ccc(Cl)s1)C2)C1CCC1 | 5.46
CC[C@@H](C)[C@@H](N)C(=O)Nc1cccc(-c2cnc(N(C)CCO)nc2)c1 | -5.89

---

Reported values of cytotoxicity at 10 µM for individual entries
Assay explanation: Toxicity liver stage against HepG2, at 10uM
Assay type: cell-based
Parameters: test concentration 10 uM, cell line HepG2-A16-CD81EGFP
Condition info: human, HepG2-A16-CD81EGFP cells; read-out: INHIBITION
Value kind: cytotoxicity at 10 µM (%)

Compound | Unit tag | Value
CCN1CCCC(c2nc(O)c3cc(C)ccc3n2)C1 (stereo unspecified) | % | 8.02
CC(C)n1ccnc1C1CCN(Cc2ccc(C(F)(F)F)c(F)c2)CC1 | % | -7.43
O=S(=O)(c1c(Cl)nc2sccn12)N1CCC2(CCNCC2)C1 | % | 6.11
Cn1cccc(NC(=O)N2CCC(Cc3ccccc3)C2)c1=O (stereo unspecified) | % | 11.9
CCC(=O)N1CCCN(c2cncc(-n3nc(C)cc3C)n2)CC1 | % | -8.44
CN1C[C@@H](C(=O)NC(C)(C)C)[C@@]2(COc3ccc(F)cc3C2=O)C1 | % | 1.5
O=C(c1cscn1)N1CCC2(CN(Cc3nccs3)C2)C1 | % | -72.6
CNC(=O)[C@@]12CCO[C@@H]1CCN(S(=O)(=O)c1ccccc1F)C2 | % | -71.2
COCCc1noc(CN2C(=O)OC[C@@H]2C(C)C)n1 | % | -8.93
O=C(NCc1ccccn1)[C@@]12CCO[C@@H]1CCN(c1ncccn1)C2 | % | -98.4
CC(C)c1nnc2n1CC(CNC/C=C/c1ccccc1)CC2 (stereo unspecified) | % | 3.76
O=S(=O)(c1cccc(F)c1)N1CC[C@H]2[C@H]1CCN2c1ncccn1 | % | -4.35
Cc1cc(Nc2ccc3c(c2)CC(=O)N3)nc(C(C)C)n1 | % | 3.67
COC(=O)C1CCN(C(=O)NCC(C)Cc2cccs2)CC1 (stereo unspecified) | % | -7.33
CCC1CN(c2nnc(C)c(C)c2C#N)CCO1 (stereo unspecified) | % | -0.678
COC(=O)c1ccc(C(=O)NCC(O)c2cccn2C)cc1 (stereo unspecified) | % | -3.84
O=C(CCC1CCCC1)NCc1nnc2ccccn12 | % | 2.52
CCC(NC(N)=O)c1ccccc1OCC(=O)N1CCCC1 (stereo unspecified) | % | -8.29
Cc1ccc(CCc2nc(C3CCOC3)no2)o1 (stereo unspecified) | % | 3.04
COCCC(=O)N1CCC(c2nnc(-c3ccsc3)o2)CC1 | % | 9.09
CC1CN(C)CCN1CC(=O)NCCOc1ccc2c(c1)OCO2 (stereo unspecified) | % | -6.66
COc1ccc(C(=O)N2C[C@@H](NC(=O)N(C)C)[C@H](C(C)C)C2)c(OC)n1 | % | 3.6
CN(C)S(=O)(=O)NCc1nc(-c2cccc(F)c2)c(-c2ccccn2)[nH]1 | % | -7.76
Cc1cnn(CC2CCCN2C(=O)c2csc(-c3nnc[nH]3)n2)c1 (stereo unspecified) | % | -2.94
Cc1noc(OCC(=O)N2CCCCC2C)n1 (stereo unspecified) | % | 0.714
COCCN1C[C@@H]2CC[C@H]1CN(Cc1cc(=O)c3cc(C)ccc3[nH]1)C2 | % | -5.31
c1ccc(CNCC2Cn3nncc3CO2)nc1 (stereo unspecified) | % | 4.93
Cc1nc(C2CCCN2Cc2nnc(Cc3ccccc3)o2)no1 (stereo unspecified) | % | -5
CCOc1ccc(C(F)(F)F)cc1NC(=O)N1CCC(C(N)=O)CC1 | % | 0.425
Cc1c(C(=O)NCCC2CN(C)CCO2)n(C)c2c(C)cccc12 (stereo unspecified) | % | -3.83
Cc1nc(N2CCOCC2)ncc1-c1cc(O)nc(N2CCCCC2)n1 | % | 6.2
CN(Cc1nccs1)c1nc(-c2ccccn2)nc2c1CCNCC2 | % | -14
CCN1CC[C@]2(CN(Cc3nccs3)C[C@H]2c2ccccc2)C1=O | % | 4.89
Cc1nccc(NCc2cncc3c2CCN(CC2CC2)C3)n1 | % | -92.4
Cc1nn(C)c(N(C)C)c1CNC(C)COc1ccccc1F (stereo unspecified) | % | -14.1
CC(C)n1[nH]c(=O)c2c1NC(=O)CC2c1ccncc1 (stereo unspecified) | % | -4.66

---

Assay explanation: Toxicity liver stage against HepG2, at 10uM
Assay type: cell-based
Parameters: test concentration 10 uM, cell line HepG2-A16-CD81EGFP
Condition info: human, HepG2-A16-CD81EGFP cells; read-out: INHIBITION

Molecule | cytotoxicity at 10 µM / %
Cc1cnn(CC2CN(Cc3nc4ccccc4n3C)CCO2)c1 (centres undefined) | 0.338
Clc1cccc(C(CNc2ncccn2)N2CCOCC2)c1 (centres undefined) | 4.55
Cn1c(Cn2cccn2)nnc1C1CCN(Cc2cccnc2)CC1 | 6.01
CC1CCN(CCNC(=O)c2sccc2C2CC2)CC1 | -144
N#Cc1cccnc1N1CCCC(CO)(Cc2ccccc2F)C1 (centres undefined) | 4.01
COC(CNC(=O)N1CCC(n2cncn2)CC1)c1ccccc1 (centres undefined) | 4.33
CCc1noc(CS(=O)(=O)Cc2ccccc2C)n1 | 16.8
CC(C)c1nnc(NC(=O)NC2CCOc3ccccc32)s1 (centres undefined) | 18.1
COc1ccc(CN2CC[C@@H](O)[C@@H]2Cc2cnn(C)c2)cc1 | -68.3
Cc1cc(C)cc(CN2CCN(C(=O)COCC3CCCO3)CC2=O)c1 (centres undefined) | 4.07
O=C(NC1CCS(=O)(=O)c2ccccc21)c1sccc1C1CC1 (centres undefined) | 3.63
CCC(C(=O)NCc1ccn(-c2ccc(F)cc2)n1)N1CCCC1=O (centres undefined) | -5.63
O=C1N(Cc2ccc(F)c(F)c2)CCCC1(O)CNCc1cccnc1 (centres undefined) | 0.598
COCCCN(Cc1cnc(C2CCCCC2)nc1)C1CCN(C)CC1 | -4.43
Cc1ccc(N2CCC3(CC2)CNC(=O)CO3)nn1 | 6.07
CC(C)COCC1CN(Cc2ccoc2)Cc2ncn(C)c21 (centres undefined) | 4.53
CCC(=O)N1CCCC(C(=O)N2CCN(c3cnn(C)c(=O)c3)CC2)C1 (centres undefined) | 3.98
CC(C)Cc1cc(C(=O)NC(C)(CO)CO)n(C)n1 | 6.57
CCN(CC)CCNC(=O)c1cnc(-c2ccccc2)nc1 | 12.4

Values compiled from ChEMBL document CHEMBL4513216.
